Values from PubChem BioAssay (NCI)

- Tested on: SK-OV-3 ovarian
- protocolSummary: NCI tumour cell line growth inhibition, 48 h
metricName: TGI

COc1ccc(NC(=O)/C(CC2=Nc3ccc([N+](=O)[O-])cc3NC2O)=N\NC(=O)C[N+](C)(C)C)c(OC)c1 (stereo not given)	> 100 µM
COc1cc([C@@H]2c3cc4c(cc3[C@@H](NC(=O)c3ccccc3)C3COC(=O)[C@@H]32)OCO4)cc(OC)c1O (stereo not given in full)	> 100 µM
O=C(N/N=C\c1ccc2ccccc2c1)Nc1ccc([N+](=O)[O-])cc1	> 59.8 µM
CC(=O)NC1=C(C)C(=O)c2c(nc3n2CCC3O)C1=N (stereo not given)	97.1 µM
COc1cc(C2c3cc4c(cc3[C@@H](Nc3cccc(C(C)=O)c3)C3COC(=O)[C@H]23)OCO4)cc(OC)c1O (stereo not given in full)	5.28 µM
Clc1ccc(C2NN=C3c4ccccc4OCC32)cc1 (stereo not given)	> 100 µM

Please give measured TGI of the following entry: CC1(C)Oc2ccc3c(=O)cc(-c4ccc(F)cc4)oc3c2C1C(=O)O (stereo not given) > 100 µM

Output TGI of `C[Si](C)(OCCS(=O)(=O)O)C1S(=O)(=O)OCCOS1(=O)=O` > 100 µM

Look up TGI of `Cc1ccc(N=C2C(=O)C3=C(OC(C)(C)CC3)c3ccccc32)cc1` and report it. 3.1 µM

Dear colleague, please send me the reported TGI for `O=NNc1nc(-c2cccnc2)nc2ccccc12` when you can. > 100 µM

* * *

Catalogue of compounds with associated GI50
- Test system: OVCAR-8 ovarian
- protocolSummary: NCI tumour cell line growth inhibition, 48 h

Some compounds with known GI50 results, for comparison:
COc1ccc(-c2cn(-c3ccccc3)c(-c3ccccc3)n2)cc1OC	3.01 µM
CC1C(=O)C(C)C(c2ccccc2)N(N=O)C1c1ccccc1 (stereo unspecified)	353 µM
COc1c(N2CCN(CN3C(=O)C(=Nc4ccc(S(=O)(=O)Nc5ncccn5)cc4)c4ccccc43)C(C)C2)c(F)cc2c(=O)c(C(=O)O)cn(C3CC3)c12 (stereo unspecified)	21.4 µM

Fill in GI50 for record `Clc1nc(Cl)c2c(ncn2C/C=C\Cn2cnc3c(Cl)nc(Cl)nc32)n1` 1.2 µM

Note down GI50 recorded for C=C1CC[C@@H]2[C@](C)(COC(C)=O)[C@H](OC(C)=O)CC[C@@]2(C)[C@@H]1CC(Nc1ccc(S(=O)(=O)Nc2nccc(C)n2)cc1)C1=CCOC1=O (stereo partly specified) 2.61 µM

Given `COc1ccc(-c2cncn2-c2ccc(OC)cc2)cc1` , respond with its GI50. 21.1 µM

* * *

Documented TGI across a set of molecules
- Test system: TK-10 renal
- protocolSummary: NCI tumour cell line growth inhibition, 48 h

CC(C)CC1=[N+]=C(NC#N)N=C(CCC(=O)Nc2ccccc2[N+](=O)[O-])C1	> 100 µM
C=C1C(=O)O[C@H]2[C@H]1CC/C(COC(=O)N1CCC[C@H]1C(=O)Nc1ccc(OC)c(C(N)=O)c1O)=C\CC[C@@]1(C)O[C@@H]21	7.16 µM
O[C@@H]1C[C@@H]2N[C@@](O)(C[C@@H]2O)[C@H]1O	> 100 µM

Under TK-10 renal, report TGI for `Cc1ccc2c(n1)C(=O)c1ccccc1C2=O` > 100 µM

GET TGI | system: TK-10 renal | item: CC(=O)Nc1ccc2c3c(cc(O)c2c1)N(C(=O)CCCCC(=O)Nc1ccc2c4c(cc(O)c2c1)N(C(=O)OC(C)(C)C)CC4CCl)CC3CCl (centres undefined) > 65.5 µM

State measured TGI of the molecule `C=C(C)C(=O)O[C@H]1[C@H]2[C@H](OC(=O)[C@H]2C)[C@H](O)[C@@H](C)[C@@H]2C=CC(=O)[C@]21C` with TK-10 renal. 8.09 µM

* * *

- Tested on: HT29 colon
- protocolSummary: NCI tumour cell line growth inhibition, 48 h
metricName: TGI (µM)
State the answer as a number, implicitly in µM.

Known TGI results, listed for orientation:
S=c1[nH]c2ccc(Br)cc2c(=S)n1-c1ccccc1	47.7
COc1ccc2c(c1)OC(N(C(C)=O)C(C)=O)=C(C#N)C2c1ccc(F)cc1 (centres undefined)	18
O=C(CCl)N1c2ccccc2Sc2c1ccc1ccccc21	15.5
COc1ccc2c(c1)c1c(n2CCN2CCCCC2)-c2ccccc2CC1	17.2
CCc1cc(O)c(Cl)c(C)c1Cl	39.1

# evaluate next
Given `COc1ccc2oc3cccc(NCCN(C)C)c3c(=O)c2c1` , report its TGI on HT29 colon. 20.3

* * *

- Tested on: HT29 colon
- protocolSummary: NCI tumour cell line growth inhibition, 48 h
metricName: TGI

ClCc1c(Cl)c(Cl)c(Cl)c(CCl)c1Cl	3.3 µM
CC[C@H](CC#N)OC(=O)N[C@@H](C)c1cccc(NC(=O)Nc2ccc(-c3cnco3)c(OC)c2)c1	21.7 µM

Next:
Kindly indicate its recorded TGI. Item: O=[N+]([O-])c1cccnc1NCC1(CO)CC(Cc2ccccc2)C1 (stereo unspecified) > 100 µM

* * *

- Test system: SK-MEL-2 melanoma
- protocolSummary: NCI tumour cell line growth inhibition, 48 h
Label rule, in plain words: TGI of 30 µM and up is label 1, under 30 µM is label 0.

COc1ccc2nc3cc(Cl)ccc3c(NCCCN(CCCl)CCCl)c2c1	label 0
CC[C@H]1OC([C@H](O)C/C=C\C#C[Si](C)(C)C)C/C=C\C[C@H]1O[Si](C)(C)C(C)(C)C (stereo not given in full)	label 1
CC(C)NC(=O)OCCS(=O)c1c(Cl)c(Cl)nn1C (stereo not given)	label 1
CNC(=O)c1[nH]cnc1/N=N/N(C)N	label 1
Cn1c2ccccc2c(=NNc2ccc(C(=O)O)cc2)c2ccccc21	label 1
Cc1nc2sc(C(=O)Nc3ccccc3)c(N)c2cc1C(=O)/C=C/c1ccccc1	label 0
Cn1c(-c2cccs2)cc(-c2cccs2)c1-c1ccsc1	label 1
CCN(CC)C(=S)SS(=O)(=O)c1ccc([N+](=O)[O-])cc1	label 1

Now, please, on to the next molecule.
Quick check, TGI >= 30 µM? `C#C[C@]1(O)CC[C@H]2[C@@H]3CCc4cc(OC(=O)c5cccc6cc7ccccc7nc56)ccc4[C@H]3CC[C@@]21C` label 1

* * *

# TGI values compiled below
- System: RXF 393 renal
- protocolSummary: NCI tumour cell line growth inhibition, 48 h

CC1OC2CC(=O)OC2C2=C1C(=O)c1c(O)c3c(c(O)c1C2=O)C1CC(O)C3(O)C(C)O1 (stereo unspecified)	2.51 µM

Tell me TGI reported for `COc1ccc(O)c(C#N)c1C#N` > 100 µM

* * *

Each record here notes measured TGI.
- Test system: NCI-H522 lung
- protocolSummary: NCI tumour cell line growth inhibition, 48 h

Solved cases (5 shown):
COc1ccc(N=C(Nc2ccc(OC)cc2)C(=Nc2ccc(OC)cc2)Nc2ccc(OC)cc2)cc1	> 100 µM
O=C1CCCCc2cccc(O)c21	> 100 µM
CC(=O)n1c2ccccc2c2nc3nc(Oc4ccc(C)cc4)c4ccccc4c3cc21	> 100 µM
CCC(=O)O[C@H]1CC[C@H]2[C@@H]3CCC4=C/C(=N/NC(=O)c5cccc6c(=O)c7ccccc7[nH]c56)CC[C@]4(C)[C@H]3CC[C@]12C	> 25 µM
CC(C)CCn1c(=O)c2c(=O)[nH][nH]c2c2ccccc21	> 100 µM

Please give measured TGI of the following entry: O=[N+]([O-])c1cccnc1NCC1(CO)CC(Cc2ccccc2)C1 (stereo not given) > 100 µM

Answer with the recorded TGI for the compound listed here: `CC(=O)Nc1ccc2c(c1)oc(=O)c1cc(NC(C)=O)ccc12` > 100 µM

Specify reported TGI for the compound shown: `C1=C\CCCCN2C[C@H]3CCCC/C=C\CCCCN4CC[C@@H]([C@H](CCCCCC/1)C4)[C@H](C3)C2` 3.33 µM

Quickly give me recorded TGI for NNC(=O)CCC(=O)NC1C2CC3CC(C2)CC1C3 (stereo not given) > 100 µM

Please give the documented TGI of `CN(C)Cc1cc(N=Nc2ccccc2)cc(CN(C)C)c1O` > 100 µM

* * *

- Tested on: SR leukemia
- protocolSummary: NCI tumour cell line growth inhibition, 48 h; in the data active means GI50 below about 0.43 µM; inactive means the rest
Select the correct class. Options are active, inactive and nothing else.

Cc1nc2sc(C(=O)Nc3ccccc3)c(N)c2cc1C(=O)/C=C/c1ccccc1	inactive
Fc1cccc(COc2ccc(Nc3ncnc4cc(-c5ccc[nH]5)sc34)cc2Cl)c1	inactive

How did this test come out for `C[C@@H]1CN(CC(=O)N2CC(C)(C)c3nc(CO)c(Cc4ccc(F)cc4)cc32)[C@@H](CN2CCOC[C@H]2C)CN1` ? inactive

In this assay, the call recorded for `O=C1C(Cl)=C(Nc2cccc(O)c2)C(=O)N1c1cc(Cl)c(Cl)cc1Cl` was what? inactive

Recorded call for CC1OC2CC(=O)OC2C2=C1C(=O)c1c(O)c3c(c(O)c1C2=O)C1CC(O)C3(O)C(C)O1 (stereo not given) ? active
